Target: Kras and SOS1 (biotin-tagged human Kras loaded with GDP, His-tagged human SOS1) (Homo sapiens, UniProt P01116, G12D)
Construct: made in house; host or cells: E. coli (stated for Kras only)
Sequence (P01116 1-188 isoform P01116-2 G12D): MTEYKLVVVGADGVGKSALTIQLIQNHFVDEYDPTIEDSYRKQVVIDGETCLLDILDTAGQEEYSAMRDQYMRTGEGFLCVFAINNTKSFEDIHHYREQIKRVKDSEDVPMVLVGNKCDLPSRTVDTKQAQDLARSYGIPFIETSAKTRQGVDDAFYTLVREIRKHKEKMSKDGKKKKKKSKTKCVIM
Assay: Protein-protein interaction inhibition between Kras and SOS1 (KrasGl2D-SOS PPI) using AlphaScreen
Format: binding
Details: AlphaScreen; biotin-tagged human Kras loaded with GDP, His-tagged human SOS1; read-out: KRAS G12D-SOS PPI IC50
Starred links: 1 amine or outer side, 2 acyl side, 3 side chain; linkers in the order of their positions; H or OH if unused. Positions of bridges follow the written chain, without caps; N, C: chain ends. Non-standard residues stand in square brackets, D forms with d. Residues, ends and D or L forms follow the SMILES beside them. *: point of attachment. hPhe(4-CF3) = N[C@@H](CCc1ccc(C(F)(F)F)cc1)C(=O)O; NMePhe(4-Cl) = CN[C@@H](Cc1ccc(Cl)cc1)C(=O)O; Phe(3-I) = N[C@@H](Cc1cccc(I)c1)C(=O)O; X10 = CC(C)=CC[C@H](N[*:1])C(=O)[*:2]; NMeF = CN[C@@H](Cc1ccccc1)C(=O)O; NMeD = CN[C@@H](CC(=O)O)C(=O)O; NMeL = CN[C@@H](CC(C)C)C(=O)O; NMeA = CN[C@@H](C)C(=O)O; NMeAib = CNC(C)(C)C(=O)O; Piperidide = C1CCN(*)CC1; Pyrrolidide = C1CCN(*)C1; Aze = O=C(O)[C@@H]1CCN1; CH2CMe2OH = CC(C)(O)C*; Sar = CNCC(=O)O
experimentalReadout: IC50

compound="CC[C@H](C)[C@@H]1NC(=O)[C@H](C)N(C)C(=O)C[C@@H](C(=O)N2CCCC2)NC(=O)[C@H](CC(C)C)N(C)C(=O)[C@H](Cc2ccccc2)N(C)C(=O)[C@H](COCC(C)(C)O)NC(=O)[C@H](CCc2ccc(C(F)(F)F)cc2)NC(=O)CN(C)C(=O)[C@H](Cc2ccc(Cl)cc2)N(C)C(=O)CN(C)C(=O)CN(C)C1=O [Compound 502] ([NMeA]I[Sar][Sar][NMePhe(4-Cl)][Sar][hPhe(4-CF3)]S(CH2CMe2OH)[NMeF][NMeL]D-Pyrrolidide; lactam N-11)" result="47 nM"
compound="CC[C@H](C)[C@@H]1NC(=O)[C@H](CC(C)C)N(C)C(=O)C[C@@H](C(=O)N2CCCCC2)N(C)C(=O)[C@H](CC(C)C)NC(=O)C(C)(C)N(C)C(=O)[C@H](CC=C(C)C)NC(=O)[C@H](Cc2cccc(I)c2)NC(=O)CN(C)C(=O)[C@H](Cc2ccc(Cl)cc2)N(C)C(=O)[C@@H]2CCN2C(=O)[C@H](C)N(C)C1=O [Compound 1419] ([NMeL]I[NMeA][Aze][NMePhe(4-Cl)][Sar][Phe(3-I)][X10][NMeAib]L[NMeD]-Piperidide; lactam N-11)" result="46 nM"

* * *

Target: Kras and SOS1 (biotin-tagged human Kras loaded with GDP, His-tagged human SOS1) (Homo sapiens, UniProt P01116, G12D)
Construct: made in house; host or cells: E. coli (stated for Kras only)
Assay: Protein-protein interaction inhibition between Kras and SOS1 (KrasGl2D-SOS PPI) using AlphaScreen
Assay type: binding
Details: AlphaScreen; biotin-tagged human Kras loaded with GDP, His-tagged human SOS1; read-out: KRAS G12D-SOS PPI IC50
Starred links: 1 amine or outer side, 2 acyl side, 3 side chain; linkers in the order of their positions; H or OH if unused. Positions of bridges follow the written chain, without caps; N, C: chain ends. Non-standard residues stand in square brackets, D forms with d. Residues, ends and D or L forms follow the SMILES beside them. *: point of attachment. hPhe(3-Cl-4-CF3) = N[C@@H](CCc1ccc(C(F)(F)F)c(Cl)c1)C(=O)O; NMePhe(4-F) = CN[C@@H](Cc1ccc(F)cc1)C(=O)O; NMedβ3hAla = C[C@H](CC(=O)[*:2])N(C)[*:1]; NMeCha = CN[C@@H](CC1CCCCC1)C(=O)O; NMeChg = CN[C@H](C(=O)O)C1CCCCC1; NMeD = CN[C@@H](CC(=O)O)C(=O)O; NMeL = CN[C@@H](CC(C)C)C(=O)O; NMeV = CN[C@H](C(=O)O)C(C)C; Pip = O=C(O)[C@@H]1CCCCN1; Piperidide = C1CCN(*)CC1; Ac5c = NC1(C(=O)O)CCCC1; Sar = CNCC(=O)O
Catalogue of compounds with associated IC50
experimentalReadout: IC50 (nM)

compound="CC[C@H](C)[C@@H]1NC(=O)[C@H](CC(C)C)N(C)C(=O)C[C@@H](C(=O)N2CCCCC2)N(C)C(=O)[C@H](C2CCCCC2)N(C)C(=O)C2(CCCC2)NC(=O)[C@@H]2CCCCN2C(=O)[C@H](CCc2ccc(C(F)(F)F)c(Cl)c2)NC(=O)CN(C)C(=O)[C@H](CC2CCCCC2)N(C)C(=O)CN(C)C(=O)CN(C)C1=O [Compound 728] ([NMeL]I[Sar][Sar][NMeCha][Sar][hPhe(3-Cl-4-CF3)][Pip][Ac5c][NMeChg][NMeD]-Piperidide; lactam N-11)" experimentalreadout=IC50 measureunit=nM recordednumber=16
compound="CC[C@H](C)[C@@H]1NC(=O)[C@H](CC(C)C)N(C)C(=O)C[C@@H](C)N(C)C(=O)[C@H](C(C)C)N(C)C(=O)C2(CCCC2)NC(=O)[C@@H]2CCCN2C(=O)[C@H](CCc2ccc(C(F)(F)F)c(Cl)c2)NC(=O)CN(C)C(=O)[C@H](Cc2ccc(F)cc2)N(C)C(=O)CN(C)C(=O)CN(C)C1=O [Compound 1571] (cyclo([Ac5c][NMeV][NMedβ3hAla][NMeL]I[Sar][Sar][NMePhe(4-F)][Sar][hPhe(3-Cl-4-CF3)]P))" experimentalreadout=IC50 measureunit=nM recordednumber=4.8
